// provenance: paper PMC6455008

- Test system: rice d10 mutant
- measurement protocol: Rice micro tillering bioassay (d10 mutant, hydroponic)
- Type: in vivo
- measurement conditions: SL-deficient d10 mutant, hydroponic, 2.5 μM, twice a week up to 3 weeks; untreated d10 six tillers
reported metric: number of tillers per plant (tillers per plant)
Report the figure in tillers per plant without appending any unit label.

Data request, read-out number of tillers per plant, for COC(=O)/C=C/C(C)=C/OC1C=C(C)C(=O)O1 (stereo not shown) [MP26]
2.5

number of tillers per plant for CC1=C[C@H](O/C=C2/C(=O)O[C@@H]3c4ccccc4C[C@H]23)OC1=O [GR24, reference compound] ?
1.4

Consider the compound shown here: CC1=CC(O/C=C(\C)C=O)OC1=O (stereo not shown) [MP13] What is its recorded number of tillers per plant?
4.5

Bench note: what number of tillers per plant did CC1=C(C)C(O/C=C(\C)C=O)OC1=O (stereo not shown) [AR8, reference compound] show?
5.6

---

- target or test system: ShHTL7 (Striga hermonthica)
- Sequence (A0A0M3PNA2 1-271): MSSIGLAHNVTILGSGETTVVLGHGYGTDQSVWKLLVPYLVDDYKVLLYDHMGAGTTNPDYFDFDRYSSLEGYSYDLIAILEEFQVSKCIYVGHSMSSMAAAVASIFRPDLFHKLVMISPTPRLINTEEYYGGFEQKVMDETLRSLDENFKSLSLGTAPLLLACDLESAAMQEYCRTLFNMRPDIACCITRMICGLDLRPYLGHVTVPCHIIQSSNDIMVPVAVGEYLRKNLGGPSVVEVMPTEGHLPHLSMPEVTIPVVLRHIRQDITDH
- measurement protocol: In vitro YLG hydrolysis competition assay, ShHTL7
- Type: biochemical
- measurement conditions: 3.0 μM protein, 1.0 μM YLG, 60 min, room temperature; read-out: IC50, competitive inhibition of ShHTL7-mediated YLG hydrolysis
reported metric: IC50 (µM)
Give the number; µM is assumed, so skip it.

// returns reported IC50 for input CC1=C(C)C(O/C=C(\C)C=O)OC1=O (stereo not drawn) [AR8, reference compound]
6.9

Query: IC50; subject: CC1=CC(O/C=C(\C)C=O)OC1=O (stereo not drawn)
3.87

Entry under review: COC(=O)/C=C/C(C)=C/OC1C=C(C)C(=O)O1 (stereo not drawn) . Reported IC50?
5.3
